What relative viability was measured for each of the following?
# Tested on: NCI-H1648
# measurement_notes: relative viability (nuclei count vs DMSO), 5 days (fraction); higher = more cells survive
# condition_description: first compound 0.01 µM
Answers are plain numbers.

# count of solved cases: 3
# compound, measurement_target, result
measured = [
    ("CC(C)Oc1cc(Nc2nc(N[C@@H](C)c3ccc(F)cn3)ncc2Cl)n[nH]1 [AZ23] + CC(=O)c1c(C)c2cnc(Nc3ccc(N4CCNCC4)cn3)nc2n(C2CCCC2)c1=O [Palbociclib] (partner 0.5 µM)", "NCI-H1648", 0.227),
    ("CC(C)Oc1cc(Nc2nc(N[C@@H](C)c3ccc(F)cn3)ncc2Cl)n[nH]1 [AZ23] + Nc1nc2[nH]cc(CCc3ccc(C(=O)N[C@@H](CCC(=O)O)C(=O)O)cc3)c2c(=O)[nH]1 [Pemetrexed] (partner 0.2 µM)", "NCI-H1648", 0.706),
    ("CC(C)Oc1cc(Nc2nc(N[C@@H](C)c3ccc(F)cn3)ncc2Cl)n[nH]1 [AZ23] + NC(=O)Nc1cc(-c2cccc(F)c2)sc1C(=O)N[C@H]1CCCNC1 [AZD7762] (partner 0.2 µM)", "NCI-H1648", 0.659),
]

Now for another entry.
Any idea what relative viability came out for CC(C)Oc1cc(Nc2nc(N[C@@H](C)c3ccc(F)cn3)ncc2Cl)n[nH]1 [AZ23] + Nc1ncn([C@H]2C[C@H](O)[C@@H](CO)O2)c(=O)n1 [Decitabine] (partner 2 µM) on NCI-H1648?
0.546

---

What relative viability was measured for each of the following?
# Test system: 201T
# measurement_notes: relative viability (nuclei count vs DMSO), 5 days (fraction); higher = more cells survive
# condition_description: first compound 1.265 µM
Answers are plain numbers.

# count of solved cases: 4
# molecule, relative viability
measured = [
    ("COc1cc(N2CCC(C(N)=O)CC2)ccc1Nc1nc(N)c(Cl)c(Nc2ccccc2S(=O)(=O)C(C)C)n1 [HG-5-88-01] + CC(=O)Nc1cccc(-n2c(=O)n(C3CC3)c(=O)c3c(Nc4ccc(I)cc4F)n(C)c(=O)c(C)c32)c1 [Trametinib] (partner 0.02 µM)", 0.694),
    ("COc1cc(N2CCC(C(N)=O)CC2)ccc1Nc1nc(N)c(Cl)c(Nc2ccccc2S(=O)(=O)C(C)C)n1 [HG-5-88-01] + C[C@@H](Oc1cc(-c2cnn(C3CCNCC3)c2)cnc1N)c1c(Cl)ccc(F)c1Cl [Crizotinib] (partner 1 µM)", 0.986),
    ("COc1cc(N2CCC(C(N)=O)CC2)ccc1Nc1nc(N)c(Cl)c(Nc2ccccc2S(=O)(=O)C(C)C)n1 [HG-5-88-01] + NC(=O)Nc1cc(-c2cccc(F)c2)sc1C(=O)N[C@H]1CCCNC1 [AZD7762] (partner 0.2 µM)", 0.631),
    ("COc1cc(N2CCC(C(N)=O)CC2)ccc1Nc1nc(N)c(Cl)c(Nc2ccccc2S(=O)(=O)C(C)C)n1 [HG-5-88-01] + CS(=O)(=O)CCNCc1ccc(-c2ccc3ncnc(Nc4ccc(OCc5cccc(F)c5)c(Cl)c4)c3c2)o1 [Lapatinib] (partner 2 µM)", 1.07),
]

Field: relative viability. Fill in for each record below.
1. Clc1ccc(Nc2nnc(Cc3ccncc3)c3ccccc23)cc1 [Vatalanib] + COc1cccc2cc(-c3nc([C@H]4CC[C@H](C(=O)O)CC4)n4ncnc(N)c34)[nH]c12 [OSI-027] (partner 0.5 µM)
2. Clc1ccc(Nc2nnc(Cc3ccncc3)c3ccccc23)cc1 [Vatalanib] + NC(=O)Nc1cc(-c2cccc(F)c2)sc1C(=O)N[C@H]1CCCNC1 [AZD7762] (partner 0.2 µM)
3. COc1cc(N2CCC(C(N)=O)CC2)ccc1Nc1nc(N)c(Cl)c(Nc2ccccc2S(=O)(=O)C(C)C)n1 [HG-5-88-01] + N=C(N)NC(=N)NCCc1ccccc1 [Phenformin] (partner 250 µM)
4. Clc1ccc(Nc2nnc(Cc3ccncc3)c3ccccc23)cc1 [Vatalanib] + CS(=O)(=O)CCNCc1ccc(-c2ccc3ncnc(Nc4ccc(OCc5cccc(F)c5)c(Cl)c4)c3c2)o1 [Lapatinib] (partner 2 µM)
5. Clc1ccc(Nc2nnc(Cc3ccncc3)c3ccccc23)cc1 [Vatalanib] + Nc1ncn([C@H]2C[C@H](O)[C@@H](CO)O2)c(=O)n1 [Decitabine] (partner 2 µM)
6. Clc1ccc(Nc2nnc(Cc3ccncc3)c3ccccc23)cc1 [Vatalanib] + O=C(c1cc(Cc2n[nH]c(=O)c3ccccc23)ccc1F)N1CCN(C(=O)C2CC2)CC1 [Olaparib] (partner 8 µM)

0.657
0.648
0.547
1.05
0.867
0.842
